Test system: Staphylococcus aureus 446
Protocol: MIC, standard broth micro-dilution assay, SA 446
Type: cell-based
Design: unit not given here
Experimental: The antibacterial efficacy of the present compounds is illustrated by Table II. The minimal inhibitory concentrations (MICs) were determined using a standard broth micro-dilution assay.
Recorded Minimal Inhibitory Concentration (MIC) SA 446, one value per entry.
Write no unit; give the number alone.

For orientation, consider the following solved cases.
C[C@@H]1O[C@@H](O[C@H]2[C@H](Oc3c4cc5cc3Oc3ccc(cc3Cl)[C@@H](O[C@H]3C[C@](C)(N)[C@@H](O)[C@H](C)O3)[C@@H]3NC(=O)[C@H](NC(=O)[C@@H]5NC(=O)[C@H](CC(N)=O)NC(=O)[C@H](NCc5ccc(-c6cc(C(F)(F)F)cc(C(F)(F)F)c6)cc5)[C@H](O)c5ccc(c(Cl)c5)O4)c4ccc(O)c(c4)-c4c(O)cc(O)cc4[C@@H](C(=O)O)NC3=O)O[C@H](CO)[C@@H](O)[C@@H]2O)C[C@](C)(N)[C@H]1O	2
C[C@@H]1O[C@@H](O[C@@H]2c3ccc(c(Cl)c3)Oc3cc4cc(c3O[C@@H]3O[C@H](CO)[C@@H](O)[C@H](O)[C@H]3O[C@H]3C[C@](C)(NCc5ccc(-c6ccc(Cl)cc6)cc5)[C@@H](O)[C@H](C)O3)Oc3ccc(cc3Cl)[C@@H](O)[C@@H](NCCCCCCc3ccccc3)C(=O)N[C@@H](CC(N)=O)C(=O)N[C@H]4C(=O)N[C@H]3C(=O)N[C@@H]2C(=O)N[C@H](C(=O)O)c2cc(O)cc(O)c2-c2cc3ccc2O)C[C@](C)(N)[C@H]1O	8
CCCCCCN[C@H]1C(=O)N[C@@H](CC(N)=O)C(=O)N[C@H]2C(=O)N[C@H]3C(=O)N[C@H](C(=O)N[C@H](C(=O)O)c4cc(O)cc(O)c4-c4cc3ccc4O)[C@H](O[C@H]3C[C@](C)(N)[C@@H](O)[C@H](C)O3)c3ccc(c(Cl)c3)Oc3cc2cc(c3O[C@@H]2O[C@H](CO)[C@@H](O)[C@H](O)[C@H]2O[C@H]2C[C@](C)(NCCCCCC)[C@@H](O)[C@H](C)O2)Oc2ccc(cc2Cl)[C@H]1O [Example 7, N^1,N^DISACC -DIHEXYLDESLEUCYL-A82846B]	16
C[C@@H]1O[C@@H](O[C@@H]2c3ccc(c(Cl)c3)Oc3cc4cc(c3O[C@@H]3O[C@H](CO)[C@@H](O)[C@H](O)[C@H]3O[C@H]3C[C@](C)(NCc5ccc(-c6ccccc6)cc5)[C@@H](O)[C@H](C)O3)Oc3ccc(cc3Cl)[C@@H](O)[C@@H](NCc3ccc(-c5ccccc5)cc3)C(=O)N[C@@H](CC(N)=O)C(=O)N[C@H]4C(=O)N[C@H]3C(=O)N[C@@H]2C(=O)N[C@H](C(=O)O)c2cc(O)cc(O)c2-c2cc3ccc2O)C[C@](C)(N)[C@H]1O	4

In the following, a different molecule is considered.
Minimal Inhibitory Concentration (MIC) SA 446 reported for this molecule C[C@@H]1O[C@@H](O[C@@H]2c3ccc(c(Cl)c3)Oc3cc4cc(c3O[C@@H]3O[C@H](CO)[C@@H](O)[C@H](O)[C@H]3O[C@H]3C[C@](C)(NCc5ccc(-c6ccccc6)cc5)[C@@H](O)[C@H](C)O3)Oc3ccc(cc3Cl)[C@@H](O)[C@@H](NCc3ccccc3)C(=O)N[C@@H](CC(N)=O)C(=O)N[C@H]4C(=O)N[C@H]3C(=O)N[C@@H]2C(=O)N[C@H](C(=O)O)c2cc(O)cc(O)c2-c2cc3ccc2O)C[C@](C)(N)[C@H]1O : 2
